Recorded DC50, one value per entry.
Biological target: HiBit-BRM fusion protein (Homo sapiens)
Construct: expressed in transfected cells
Sequence (P51531 whole entry, the tested form may be a part): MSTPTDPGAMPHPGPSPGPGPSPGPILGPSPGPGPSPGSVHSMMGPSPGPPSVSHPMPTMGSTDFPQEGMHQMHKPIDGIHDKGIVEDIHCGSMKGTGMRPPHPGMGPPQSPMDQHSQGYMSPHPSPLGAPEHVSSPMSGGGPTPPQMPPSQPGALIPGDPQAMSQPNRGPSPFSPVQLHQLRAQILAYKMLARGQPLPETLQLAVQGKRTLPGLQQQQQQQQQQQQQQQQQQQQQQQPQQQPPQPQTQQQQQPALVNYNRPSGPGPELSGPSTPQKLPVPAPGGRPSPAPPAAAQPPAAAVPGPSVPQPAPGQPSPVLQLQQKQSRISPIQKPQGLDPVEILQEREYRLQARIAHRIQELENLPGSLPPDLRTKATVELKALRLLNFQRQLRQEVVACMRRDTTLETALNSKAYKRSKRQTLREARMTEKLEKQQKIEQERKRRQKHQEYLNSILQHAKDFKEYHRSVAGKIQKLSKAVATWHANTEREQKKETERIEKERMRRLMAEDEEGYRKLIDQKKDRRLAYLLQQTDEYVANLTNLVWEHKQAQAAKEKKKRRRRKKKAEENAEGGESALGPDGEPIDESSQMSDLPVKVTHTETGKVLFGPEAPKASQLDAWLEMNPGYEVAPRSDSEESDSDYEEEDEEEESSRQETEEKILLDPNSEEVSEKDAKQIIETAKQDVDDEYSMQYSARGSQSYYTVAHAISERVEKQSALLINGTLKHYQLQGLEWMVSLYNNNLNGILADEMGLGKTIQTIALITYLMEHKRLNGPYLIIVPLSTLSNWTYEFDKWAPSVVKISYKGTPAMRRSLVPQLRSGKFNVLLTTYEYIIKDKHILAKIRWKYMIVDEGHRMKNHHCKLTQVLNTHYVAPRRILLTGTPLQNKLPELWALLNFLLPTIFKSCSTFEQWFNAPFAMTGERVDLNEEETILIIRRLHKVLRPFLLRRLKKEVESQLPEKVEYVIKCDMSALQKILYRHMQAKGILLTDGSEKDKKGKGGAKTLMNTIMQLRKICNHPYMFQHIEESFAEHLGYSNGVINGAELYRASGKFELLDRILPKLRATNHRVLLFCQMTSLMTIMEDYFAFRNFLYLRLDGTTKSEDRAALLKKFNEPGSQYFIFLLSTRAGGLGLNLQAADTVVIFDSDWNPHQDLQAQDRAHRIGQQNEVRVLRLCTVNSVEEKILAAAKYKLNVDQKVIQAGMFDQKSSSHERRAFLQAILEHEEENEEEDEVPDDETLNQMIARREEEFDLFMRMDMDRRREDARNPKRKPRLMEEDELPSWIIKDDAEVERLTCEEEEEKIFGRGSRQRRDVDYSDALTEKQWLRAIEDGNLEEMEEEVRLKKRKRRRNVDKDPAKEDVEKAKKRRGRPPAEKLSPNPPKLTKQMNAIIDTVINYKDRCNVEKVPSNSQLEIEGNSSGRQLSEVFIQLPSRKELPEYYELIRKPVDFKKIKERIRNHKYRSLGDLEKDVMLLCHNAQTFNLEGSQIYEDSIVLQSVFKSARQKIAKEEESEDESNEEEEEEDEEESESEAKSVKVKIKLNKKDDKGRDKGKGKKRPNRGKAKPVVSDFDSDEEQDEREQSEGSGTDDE
Assay: HiBiT-BRM cell-based degradation assay (Nano-Glo HiBiT Lytic Detection, 24 h)
Conditions: HeLa cells expressing HiBiT-BRM, read-out: BRM HiBit Degradation IC50

Solved entries:
>  <compound>
Cc1c(C(=O)NCC(=O)Nc2nc(-c3cccc(-c4ccnc(N(C)CC(=O)NCCCCCNc5cccc6c5C(=O)N(C5CCC(=O)NC5=O)C6=O)c4)c3)cs2)cn(S(=O)(=O)C(C)C)c1C (centres unmarked)

>  <DC50>
> 10 µM

$$$$
>  <compound>
CS(=O)(=O)n1ccc(C(=O)NCC(=O)Nc2nc(-c3cccc(-c4ccnc(C5(C(=O)NCCS(=O)(=O)CCNc6cccc7c6C(=O)N(C6CCC(=O)NC6=O)C7=O)CC5)c4)c3)cs2)c1 (centres unmarked)

>  <DC50>
> 10 µM

$$$$
>  <compound>
CS(=O)(=O)n1ccc(C(=O)NCC(=O)Nc2nc(-c3cccc(-c4ccnc(C5(C(=O)NCCCCCCNc6ccc7c(c6)CN(C6CCC(=O)NC6=O)C7=O)CC5)c4)c3)cs2)c1 (centres unmarked)

>  <DC50>
< 0.1 µM

$$$$
>  <compound>
CS(=O)(=O)n1ccc(C(=O)N[C@@H](COCc2ccc(C(=O)N3CCC4(CC3)CC(Oc3ccc5c(c3)C(=O)N(C3CCC(=O)NC3=O)C5=O)C4)cc2)C(=O)Nc2nc(-c3ccccc3)cs2)c1 (some centres unmarked)

>  <DC50>
> 10 µM

$$$$
>  <compound>
CS(=O)(=O)n1ccc(C(=O)N[C@@H](COCc2ccc(CNC(=O)CCCCCCCCCCNc3cccc4c3C(=O)N(C3CCC(=O)NC3=O)C4=O)cc2)C(=O)Nc2nc(-c3ccccc3)cs2)c1 (some centres unmarked) [Compound 180]

>  <DC50>
0.1 to 1 µM

$$$$

Input line: GET /values?readout=DC50&item= CS(=O)(=O)n1ccc(C(=O)N[C@@H](CCOCCCC(=O)NCCOCCOCCNC(=O)COc2ccc3c(c2)C(=O)N(C2CCC(=O)NC2=O)C3=O)C(=O)Nc2nc(-c3ccccc3)cs2)c1 (some centres unmarked)
Output line: > 10 µM

Input line: Also check CS(=O)(=O)n1ccc(C(=O)NCC(=O)Nc2nc(-c3cccc(-c4ccnc(C5(C(=O)N6CC(COc7cccc8c7C(=O)N(C7CCC(=O)NC7=O)C8=O)C6)CC5)c4)c3)cs2)c1 (centres unmarked)
Output line: > 10 µM

* * *

Molecular target: HiBit-BRG1 fusion protein (Homo sapiens, UniProt P51532)
Construct: expressed in transfected cells
Sequence (P51532 whole entry, the tested form may be a part): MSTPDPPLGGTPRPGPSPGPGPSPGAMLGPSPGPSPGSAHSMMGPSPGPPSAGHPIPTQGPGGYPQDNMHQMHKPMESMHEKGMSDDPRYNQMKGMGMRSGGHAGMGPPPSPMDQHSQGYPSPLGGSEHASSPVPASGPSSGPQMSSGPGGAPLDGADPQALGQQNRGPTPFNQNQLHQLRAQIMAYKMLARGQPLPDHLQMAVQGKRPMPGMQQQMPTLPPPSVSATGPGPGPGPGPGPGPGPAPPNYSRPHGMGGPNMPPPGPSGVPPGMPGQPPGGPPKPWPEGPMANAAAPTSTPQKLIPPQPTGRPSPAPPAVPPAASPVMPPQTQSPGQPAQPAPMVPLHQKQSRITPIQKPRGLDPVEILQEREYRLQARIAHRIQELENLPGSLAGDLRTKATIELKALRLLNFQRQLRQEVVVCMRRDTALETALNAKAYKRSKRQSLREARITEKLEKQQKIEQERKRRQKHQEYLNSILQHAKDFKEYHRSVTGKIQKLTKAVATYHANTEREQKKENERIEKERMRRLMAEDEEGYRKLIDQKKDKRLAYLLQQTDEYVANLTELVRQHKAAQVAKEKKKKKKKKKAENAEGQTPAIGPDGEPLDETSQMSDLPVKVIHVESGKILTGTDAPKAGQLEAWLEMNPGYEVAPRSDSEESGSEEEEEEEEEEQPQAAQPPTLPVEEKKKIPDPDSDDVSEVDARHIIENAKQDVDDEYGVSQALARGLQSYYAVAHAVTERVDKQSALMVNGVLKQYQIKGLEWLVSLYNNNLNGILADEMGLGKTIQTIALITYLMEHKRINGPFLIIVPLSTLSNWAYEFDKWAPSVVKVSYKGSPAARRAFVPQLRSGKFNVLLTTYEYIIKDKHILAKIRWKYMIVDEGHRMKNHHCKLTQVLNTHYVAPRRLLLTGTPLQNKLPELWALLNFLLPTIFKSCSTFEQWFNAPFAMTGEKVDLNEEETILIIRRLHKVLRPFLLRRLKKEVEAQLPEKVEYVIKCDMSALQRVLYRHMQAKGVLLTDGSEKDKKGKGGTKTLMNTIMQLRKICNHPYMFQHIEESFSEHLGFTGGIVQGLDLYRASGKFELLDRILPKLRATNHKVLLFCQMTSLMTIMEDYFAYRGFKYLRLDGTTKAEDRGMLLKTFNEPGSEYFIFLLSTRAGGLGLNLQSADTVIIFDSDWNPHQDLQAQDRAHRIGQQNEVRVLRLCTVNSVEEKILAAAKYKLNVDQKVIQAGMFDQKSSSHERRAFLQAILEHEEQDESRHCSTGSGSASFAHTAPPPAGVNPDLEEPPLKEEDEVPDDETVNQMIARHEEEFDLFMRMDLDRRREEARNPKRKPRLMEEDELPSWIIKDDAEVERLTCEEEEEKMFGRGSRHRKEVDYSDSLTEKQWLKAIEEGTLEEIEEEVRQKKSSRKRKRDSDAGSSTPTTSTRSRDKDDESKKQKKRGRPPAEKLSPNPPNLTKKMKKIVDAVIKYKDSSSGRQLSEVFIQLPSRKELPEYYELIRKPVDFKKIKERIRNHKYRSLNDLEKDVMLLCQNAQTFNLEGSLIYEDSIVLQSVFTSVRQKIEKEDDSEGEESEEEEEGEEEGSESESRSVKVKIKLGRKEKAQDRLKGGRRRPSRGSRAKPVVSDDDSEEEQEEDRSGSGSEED
Assay: HiBiT-BRG1 cell-based degradation assay (Nano-Glo HiBiT Lytic Detection, 24 h)
Details: HeLa, HeLa cells expressing HiBit-BRG1 and LgBit, top dose 30 μM, read-out: BRG1 HiBit Degradation Maximum measured
Listing of recorded Dmax by entry.

Examples from the recorded data:
>  <smiles repr>
Cc1ncsc1-c1ccc(CNC(=O)[C@@H]2C[C@@H](O)CN2C(=O)[C@@H](NC(=O)CCCCCC(=O)N2CCN(c3cc(-c4cccc(-c5csc(NC(=O)CNC(=O)c6ccn(S(C)(=O)=O)c6)n5)c4)ccn3)CC2)C(C)(C)C)cc1

>  <Dmax>
50 to 75%

$$$$
>  <smiles repr>
Cc1ncsc1-c1ccc(CNC(=O)[C@@H]2C[C@@H](O)CN2C(=O)[C@@H](NC(=O)CCOCCOCCC(=O)NCc2cccc(-c3cccc(-c4csc(NC(=O)CNC(=O)c5ccn(S(C)(=O)=O)c5)n4)c3)c2)C(C)(C)C)cc1

>  <Dmax>
> 75%

$$$$

Input line: Returns the measured Dmax for the input molecule. Input: Cc1ncsc1-c1ccc(CNC(=O)[C@@H]2C[C@@H](O)CN2C(=O)[C@@H](NC(=O)CCCCCCCCCNC(=O)C2(c3cc(-c4cccc(-c5csc(NC(=O)CNC(=O)c6ccn(S(C)(=O)=O)c6)n5)c4)ccn3)CC2)C(C)(C)C)cc1
Output line: > 75%

Each recorded value in this set is attributed to patent US12662479B2.
